Hey, just so you know, these numbers are from patent US20030068675.

- tested.on: T1, ZFP SBS#905 (synthetic)
- T1 chain: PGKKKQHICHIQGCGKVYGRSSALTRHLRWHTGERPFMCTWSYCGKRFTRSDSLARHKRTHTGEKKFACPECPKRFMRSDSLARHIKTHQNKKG
- experiment: EMSA
- assay.context: tags: MBP fusion
measurement.name: pKd
Lab note — pKd values are minus log10 of concentrations in M.

Q: // fetch pKd given entry GTGGTGGTG (dsDNA) DNA 1: GTGGTGGTG DNA 2: CACCACCAC
A: 8.94
